- systemName: N-acetylglucosamine kinase (PsNagK) (Plesiomonas shigelloides, UniProt R8APY9)
- Construct: gene nagK; His-SUMO tagged P. shigelloides NagK (crystallization)
- Sequence (R8APY9 1-303): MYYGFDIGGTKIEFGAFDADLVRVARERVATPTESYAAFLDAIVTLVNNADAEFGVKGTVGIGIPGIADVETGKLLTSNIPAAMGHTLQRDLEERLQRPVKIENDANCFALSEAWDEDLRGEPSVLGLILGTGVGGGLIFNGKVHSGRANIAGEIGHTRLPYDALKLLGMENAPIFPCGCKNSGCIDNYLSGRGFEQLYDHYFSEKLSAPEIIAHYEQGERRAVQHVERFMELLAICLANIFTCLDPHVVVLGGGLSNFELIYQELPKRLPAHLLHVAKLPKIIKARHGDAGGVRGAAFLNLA
- testName: crystal structures (binary 7PA1; ternary with GlcNAc 7P9P); isothermal differential scanning fluorimetry
- Format: binding
measuredQuantity: Kd

smiles	obsValue
Nc1ncnc2c1ncn2[C@@H]1O[C@H](COP(=O)(O)OP(=O)(O)NP(=O)(O)O)[C@@H](O)[C@H]1O	2200 µM

====

- systemName: N-acetylglucosamine kinase (PsNagK) (Plesiomonas shigelloides, UniProt R8APY9)
- Construct: gene nagK; His-SUMO tagged P. shigelloides NagK (crystallization)
- testName: crystal structure; isothermal differential scanning fluorimetry
- Assay type: binding
measuredQuantity: Kd (µM)

molecule	measuredQuantity	obsValue
CC(=O)N[C@@H]1[C@@H](O)[C@H](O)[C@@H](CO)O[C@@H]1O [GlcNAc, N-acetyl-D-glucosamine]	Kd	230
